SYSTEM_UNDER_TEST: JAK2 (recombinant purified GST-tagged catalytic domain) (Homo sapiens (Human), UniProt O60674)
Sequence (O60674 849-1124): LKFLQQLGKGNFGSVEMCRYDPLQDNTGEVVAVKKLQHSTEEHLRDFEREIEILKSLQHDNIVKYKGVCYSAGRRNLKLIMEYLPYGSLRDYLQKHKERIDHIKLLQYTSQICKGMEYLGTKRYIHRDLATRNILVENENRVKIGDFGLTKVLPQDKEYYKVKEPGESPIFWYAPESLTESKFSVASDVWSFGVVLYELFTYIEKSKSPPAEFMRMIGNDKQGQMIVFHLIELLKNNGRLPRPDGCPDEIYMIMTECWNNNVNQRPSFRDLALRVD
ASSAY_COMMENT: Jak Biochemical HTRF Assay (JAK2)
CONDITION_DESCRIPTION: [ATP] 8.5 μM
Collected IC50 values appear next to each entry.

{"columns": ["COMPOUND", "IC50 / nM"],
 "data": [
  ["CN(C)[C@H]1CC[C@@](CC#N)(n2nc(Nc3ccc4c(c3)CN(C(C)(C)C)S4(=O)=O)c3c(=O)[nH]ccc32)CC1 [Example 18-38]", 211],
  ["CC(C)(C)OC(=O)N1CCC(CC#N)(n2nc(Nc3cc(Cn4ccnn4)cc(Cn4ccnn4)c3)c3c(=O)[nH]ccc32)CC1 [Example 5-62]", 0.32],
  ["N#CCC1(n2nc(Nc3ccc(S(=O)(=O)C(F)F)cc3)c3c(=O)[nH]ccc32)CCN(c2ccc(C#N)cn2)CC1 [Example 15-3]", 0.26],
  ["N#CC[C@@]1(n2nc(Nc3ccc([C@@]4(C(F)(F)F)CCCCN4)cc3)c3c(=O)[nH]ccc32)CCOC[C@@H]1F (single isomer, unassigned) [Example 5-266]", 0.04]
]}

----------
SYSTEM_UNDER_TEST: JAK2 (recombinant purified GST-tagged catalytic domain) (Homo sapiens (Human))
ASSAY_COMMENT: Jak Biochemical HTRF Assay (JAK2)
CONDITION_DESCRIPTION: [ATP] 8.5 μM
pIC50: −log10 of the molar value.

{"columns": ["COMPOUND", "SYSTEM_UNDER_TEST", "pIC50"],
 "data": [
  ["CC(C)(C)OC(=O)N1CCC(CC#N)(n2nc(Nc3ccc(C4(C(F)(F)F)CCN(Cc5ccccc5)C4)cc3)c3c(=O)[nH]ccc32)CC1 (single isomer, unassigned) [Example 5-280]", "JAK2 (recombinant purified GST-tagged catalytic domain) (Homo sapiens (Human))", 8.02],
  ["COC1CN([C@H]2CC[C@](CC#N)(n3nc(Nc4ccc(Cl)cc4)c4c(=O)[nH]ccc43)CC2)C1", "JAK2 (recombinant purified GST-tagged catalytic domain) (Homo sapiens (Human))", 8.60],
  ["CN(C(C)(C)C)S(=O)(=O)c1ccc(Nc2nn(C3(CC#N)CCCC3)c3cc[nH]c(=O)c23)cc1", "JAK2 (recombinant purified GST-tagged catalytic domain) (Homo sapiens (Human))", 8.97],
  ["Cc1cc(Nc2nn([C@]3(CC#N)CC[C@@H](C(=O)OC(C)(C)C)OC3)c3cc[nH]c(=O)c23)ccc1C(=O)N1CCOC(C)(C)C1", "JAK2 (recombinant purified GST-tagged catalytic domain) (Homo sapiens (Human))", 9.72],
  ["CN(C)S(=O)(=O)c1ccc(Nc2nn(C3(CC#N)CCN(C(=O)C(C)(C)C)CC3)c3cc[nH]c(=O)c23)cc1", "JAK2 (recombinant purified GST-tagged catalytic domain) (Homo sapiens (Human))", 8.52],
  ["CC(C)S(=O)(=O)c1ccc(Nc2nn([C@]3(CC#N)CC[C@@H](C(=O)OC(C)(C)C)OC3)c3cc[nH]c(=O)c23)cc1 [Example 5-98]", "JAK2 (recombinant purified GST-tagged catalytic domain) (Homo sapiens (Human))", 9.74],
  ["CC(C#N)OC(=O)N1CCC(CC#N)(n2nc(Nc3ccc(S(=O)(=O)N(C)C)cc3)c3c(=O)[nH]ccc32)CC1 (stereo not shown)", "JAK2 (recombinant purified GST-tagged catalytic domain) (Homo sapiens (Human))", 10.00],
  ["CN(C(=O)[C@@H]1CC[C@@](CC#N)(n2nc(Nc3ccc4c(c3)CN(C(C)(C)C)S4(=O)=O)c3c(=O)[nH]ccc32)CO1)C(C)(C)C", "JAK2 (recombinant purified GST-tagged catalytic domain) (Homo sapiens (Human))", 8.68],
  ["Cc1cc(Nc2nn([C@]3(CC#N)CC[C@@H](C(=O)OC(C)(C)C)OC3)c3cc[nH]c(=O)c23)ccc1C(=O)N1CCOCC1C (single isomer, unassigned) [Example 20-8]", "JAK2 (recombinant purified GST-tagged catalytic domain) (Homo sapiens (Human))", 9.80],
  ["CC(C)(C)NC(c1ccc(Nc2nn([C@]3(CC#N)CC[C@@H](C(=O)OC(C)(C)C)OC3)c3cc[nH]c(=O)c23)cc1)C(F)(F)F (single isomer, unassigned) [Example 5-194]", "JAK2 (recombinant purified GST-tagged catalytic domain) (Homo sapiens (Human))", 9.09],
  ["CC(C)NC(C)(C)c1ccc(Nc2nn([C@@]3(CC#N)CCN(C(=O)OC(C)(C)C)C[C@H]3F)c3cc[nH]c(=O)c23)cc1", "JAK2 (recombinant purified GST-tagged catalytic domain) (Homo sapiens (Human))", 9.85],
  ["Cc1ccc2cc(Nc3nn([C@]4(CC#N)CCCOC4)c4cc[nH]c(=O)c34)ccc2n1", "JAK2 (recombinant purified GST-tagged catalytic domain) (Homo sapiens (Human))", 8.53],
  ["Cc1cc(Nc2nn([C@]3(CC#N)CC[C@@H](C(=O)OC(C)(C)C)OC3)c3cc[nH]c(=O)c23)ccc1C(=O)N1CCSC1C (single isomer, unassigned) [Example 5-157]", "JAK2 (recombinant purified GST-tagged catalytic domain) (Homo sapiens (Human))", 9.57],
  ["CC(C)(C)OC(=O)N1CCC(CC#N)(n2nc(NCC3CC3)c3c(=O)[nH]ccc32)CC1", "JAK2 (recombinant purified GST-tagged catalytic domain) (Homo sapiens (Human))", 7.40],
  ["CC(C)(C)N1Cc2cc(Nc3nn([C@]4(CC#N)CC[C@@H](N5CC(F)C5)CC4)c4cc[nH]c(=O)c34)ccc2S1(=O)=O", "JAK2 (recombinant purified GST-tagged catalytic domain) (Homo sapiens (Human))", 9.68],
  ["CC(C)(C)OC(=O)[C@@H]1CC[C@@](CC#N)(n2nc(Nc3ccc4nc(C(N)=O)ccc4c3)c3c(=O)[nH]ccc32)CO1", "JAK2 (recombinant purified GST-tagged catalytic domain) (Homo sapiens (Human))", 9.09]
]}

Attribution: patent US9957264B2
